The measured values listed here are drawn from paper PMC10664828.

Tested on: HL60 cells
TEST_PROTOCOL: CellTiter-Blue cell viability assay
Type: cell-based
SETUP_CONDITIONS: Homo sapiens, HL-60, 72 h, […] FBS; 72 h; read-out: HL60 IC50
Entries and their IC50
Numbers only here, please. The scale is µM.

Known results for compounds:
Cc1cc(Oc2ccc(S(=O)(=O)N(Cc3ccccc3)c3ccc(C(=O)O)c(O)c3)cc2)cc(C)c1Cl [Compound 17cd, reference compound]: 5.79
CC(C)CN(c1ccc(C(=O)O)c(O)c1)S(=O)(=O)c1ccc(Oc2ccccc2)cc1: 18.5

Field: next compound
IN: Identify measured IC50 associated with CC(=O)OCOC(=O)c1ccc(N(CC(C)C)S(=O)(=O)c2ccc(Oc3ccccc3)cc2)cc1O
OUT: 46.4

* * *

SUBJECT_OF_TEST: MCL-1 (Homo sapiens, UniProt Q07820)
Construct: His6-MBP (cleaved yes); made in house; host or cells: E. coli
Sequence (Q07820 172-327): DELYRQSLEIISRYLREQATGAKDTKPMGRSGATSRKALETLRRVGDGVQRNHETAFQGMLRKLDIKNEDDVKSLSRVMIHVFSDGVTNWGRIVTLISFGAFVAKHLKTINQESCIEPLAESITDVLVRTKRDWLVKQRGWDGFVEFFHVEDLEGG
TEST_PROTOCOL: Fluorescence polarization competition assay (FPCA) with FITC-Bak, MCL-1
Type: binding
SETUP_CONDITIONS: Table 1; FPCA, 100 nM Mcl-1 172-327, 10 nM FITC-Bak; read-out: K i
QUANTITY_NAME: pKi
Field pKi (float): negative decimal logarithm of the concentration in molar.

Record excerpt, results attached:
CC(C)CN(c1ccc(C(=O)NO)c(O)c1)S(=O)(=O)c1ccc(Oc2ccccc2)cc1: 4.15
CC(C)CN(c1ccc(-c2nn[nH]n2)cc1)S(=O)(=O)c1ccc(Oc2ccccc2)cc1: 5.48

IN: Look up and report measured pKi (MCL-1 (Homo sapiens, UniProt Q07820)) for the following compound: CS(=O)(=O)NC(=O)c1ccc(N(Cc2ccccc2)S(=O)(=O)c2ccc(Oc3ccccc3)cc2)cc1O
OUT: 5.53

* * *

SUBJECT_OF_TEST: MCL-1 (Homo sapiens)
Construct: His6-MBP (cleaved yes); made in house; host or cells: E. coli
TEST_PROTOCOL: Fluorescence polarization competition assay (FPCA) with FITC-Bak, MCL-1
Format: binding
SETUP_CONDITIONS: read-out: K i
pKi: −log10 of the molar value.
Listed below: pKi values for each entry.

CC(C)CN(c1ccc(C#N)c(O)c1)S(=O)(=O)c1ccc(Oc2ccccc2)cc1: < 3.30
CC(=O)OCOC(=O)c1ccc(N(CC(C)C)S(=O)(=O)c2ccc(Oc3ccccc3)cc2)cc1O: < 3.30

IN: For MCL-1 (Homo sapiens), give the measured pKi of the entry COC(=O)c1ccc(N(CC(C)C)S(=O)(=O)c2ccc(Oc3ccccc3)cc2)cc1O
OUT: < 3.30

IN: Name the value of pKi reported for CC(C)CN(c1ccc(-c2cc(=O)[nH]o2)cc1)S(=O)(=O)c1ccc(Oc2ccccc2)cc1 when tested on MCL-1 (Homo sapiens).
OUT: < 3.30

IN: Give pKi; test system MCL-1 (Homo sapiens); molecule O=C(NS(=O)(=O)c1ccccc1)c1ccc(N(Cc2ccccc2)S(=O)(=O)c2ccc(Oc3ccccc3)cc2)cc1O
OUT: 5.71
